Molecular target: κ opioid receptor (Homo sapiens (Human))
Experiment: κ-opioid receptor [35S]GTPγS functional assay, U-2 OS cells
Type: biochemical
Settings: κ GTP, read-out: Activity Response κ EC50 (nM) [mean ± SEM]
Field: EC50. Provide a value for each of the compounds that follow.
Give bare numbers, in nM.

Previously resolved entries follow.
CC(=O)N[C@H]1C[C@@]2(O)[C@H]3Cc4ccc(O)cc4[C@@]2(CCN3CC2CC2)CC1=O [Compound 28] ... 27.1
CC(C)C[C@H]1C[C@@]2(O)[C@H]3Cc4ccc(O)cc4[C@@]2(CCN3CC2CC2)CC1=O [Compound 69] ... 9.52
O=C1C[C@]23CCN(CC4CC4)[C@H](Cc4ccc(O)cc42)[C@]3(O)C[C@@H]1Cc1ccccc1 [Compound 71] ... 5.6

Below are some compounds; for each one, tell me its EC50.
1. O=C1C[C@]23CCN(CC4CC4)[C@H](Cc4ccc(OCc5ccccc5)cc42)[C@]3(O)C[C@@H]1CCO [Compound 58]
2. O=C1C[C@]23CCN(CC4CC4)[C@H](Cc4ccc(O)cc42)[C@]3(O)C[C@@H]1CC1CCCC1 [Compound 65]
3. CCC(C)C[C@H]1C[C@@]2(O)[C@H]3Cc4ccc(O)cc4[C@@]2(CCN3CC2CC2)CC1=O (stereo partly shown) [Compound 66]

[839, 2.57, 7.57]
